- Assayed Target: 5-HT1A (Rattus norvegicus, UniProt P19327)
- Measurement Notes: Antagonism of the discriminative stimulus properties induced by 8-OHDPAT in rats
- Assay type: in vivo, Male Wistar rats
- Set-up: from tissue; host or cells: whole living animal, male Wistar rats, s.c. dosing
- Recorded Conditions: rat, sc, s.c. before 8-OHDPAT; rats trained at 0.4 mg/kg i.p.; inhibition of drug responding; read-out: ED50, 8-OH DPAT cue antagonism
Listed compounds paired with reported ED50
Could you give me the number in µmol/kg? Just the number is fine.

COc1ccccc1N1CCN(CCCCC2CNc3ccccc32)CC1 (centres unmarked) [Compound 3a] | 7.2

Let me know recorded ED50 for c1ccc2c(c1)NCC2CCCCN1CCN(c2cccc3c2OCCO3)CC1 (centres unmarked) [Compound 3j] , thanks.
8.8

Given the compound CCOc1ccccc1N1CCN(CCCCC2CNc3ccccc32)CC1 (centres unmarked) [Compound 3c] , write its reported ED50.
4.8

* * *

- Assayed Target: 5-HT1A (Rattus norvegicus, UniProt P19327)
- Sequence (P19327 1-422): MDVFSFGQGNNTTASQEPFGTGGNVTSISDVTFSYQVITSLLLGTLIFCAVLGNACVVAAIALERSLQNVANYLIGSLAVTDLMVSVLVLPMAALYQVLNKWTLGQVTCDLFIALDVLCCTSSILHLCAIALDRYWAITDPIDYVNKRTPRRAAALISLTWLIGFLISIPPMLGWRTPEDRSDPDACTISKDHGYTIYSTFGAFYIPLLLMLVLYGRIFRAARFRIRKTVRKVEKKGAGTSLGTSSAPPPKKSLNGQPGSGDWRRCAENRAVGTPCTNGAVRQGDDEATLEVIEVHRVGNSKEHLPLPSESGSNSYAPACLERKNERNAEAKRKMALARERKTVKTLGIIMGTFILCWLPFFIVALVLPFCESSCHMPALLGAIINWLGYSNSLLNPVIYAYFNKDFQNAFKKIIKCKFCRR
- Measurement Notes: Generalization to discriminative stimulus properties induced by 8-OHDPAT in rats (agonism)
- Assay type: in vivo, Male Wistar rats
- Set-up: from tissue; host or cells: whole living animal, male Wistar rats, s.c. dosing
- Recorded Conditions: rat, sc, usually 30 or 45 min before test; substituted for 8-OHDPAT; per cent drug response; read-out: ED50, 8-OH DPAT cue agonism
Below is a list of entries, each paired with its recorded ED50 value.

COc1ccccc1N1CCN(CCCCC2CNc3ccccc32)CC1 (stereo not shown) [Compound 3a] | > 9.2 µmol/kg
CCOc1ccccc1N1CCN(CCCCC2CNc3ccccc32)CC1 (stereo not shown) | > 26 µmol/kg
COc1ccccc1N1CCN(CCCCC2CNc3ccccc32)CC1 (single isomer, unassigned; (+)) [Compound 7a] | > 6.8 µmol/kg

Alright, here's another molecule for you.
Report ED50 on 5-HT1A (Rattus norvegicus, UniProt P19327) for this entry: c1ccc2c(c1)NCC2CCCCN1CCN(c2cccc3c2OCCO3)CC1 (stereo not shown)
> 4.4 µmol/kg
